Tested on: DU-145 prostate
procedure.details: NCI tumour cell line growth inhibition, 48 h
Kindly supply the reported GI50 values for the records listed here.

Case COc1cccc(/C=N/NC(=O)c2ccccc2Nc2ccnc(C(F)(F)F)c2)c1O , DU-145 prostate, GI50 recorded as 0.543 µM

Case COC(=O)CCCCN=Cc1c(O)c(O)c(C(C)C)c2cc(C)c(-c3c(C)cc4c(C(C)C)c(O)c(O)c(C=NCCCCC(=O)OC)c4c3O)c(O)c12 , DU-145 prostate, GI50 recorded as 1.39 µM

Case Cc1c(C(=O)N/N=C/c2ccc(Cl)cc2)nnn1-c1ccnc2c(C(F)(F)F)cccc12 , DU-145 prostate, GI50 recorded as 4.89 µM

Case O=C1/C(=C/c2ccc(Cl)cc2Cl)N=C(c2ccccc2)N1Cc1ccco1 , DU-145 prostate, GI50 recorded as 21.1 µM

Case CC[CH2][Pb]([CH2]CC)([CH2]CC)[O]C(=O)C(F)(F)F , DU-145 prostate, GI50 recorded as 0.188 µM

Case O=C(NCCOCCOCCNc1cccc2c1C(=O)N(C1CCCNC1=O)C2=O)c1cc2c(o1)C(=O)c1ccccc1C2=O (centres undefined) , DU-145 prostate, GI50 recorded as 1.69 µM

Case O=C(c1ccco1)c1nc2ccc(C(F)(F)F)cc2[n+]([O-])c1C(F)(F)F , DU-145 prostate, GI50 recorded as 42.7 µM

Case COc1ccc(C2=NN(C(=O)c3cc(OC)c(OC)c(OC)c3)C(c3ccc(C#N)cc3)C2)cc1OC (centres undefined) , DU-145 prostate, GI50 recorded as 2.98 µM

Case O=c1oc2ccc(F)cc2c(=O)n1-c1ccc(F)cc1F , DU-145 prostate, GI50 recorded as 4.18 µM

Case C[C@]12CC[C@H](O)CC1=CC[C@@H]1[C@@H]2CC[C@]2(C)C(c3cccnc3)=CC[C@@H]12 , DU-145 prostate, GI50 recorded as > 100 µM

Case CCCCC/C(C=C(C#N)C#N)=C/c1ccccc1 , DU-145 prostate, GI50 recorded as 5.23 µM

Case Cc1ccc(S(=O)(=O)N(CCOc2ccc(/C(N)=N/Cl)cc2)CCOc2ccc(/C(N)=N\Cl)cc2)cc1 , DU-145 prostate, GI50 recorded as 16.1 µM

Case COc1cc2c3c(n(C)c(=O)c2cc1OC)-c1cc2c(cc1/C3=C\CCCN1C(=O)c3ccccc3C1=O)OCO2 , DU-145 prostate, GI50 recorded as 6.73 µM

Case CCOc1cccc(/C=N/NC(=O)c2ccccc2Nc2ccnc(C(F)(F)F)c2)c1O , DU-145 prostate, GI50 recorded as 0.63 µM

====

Test system: A549 NSCLC
procedure.details: NCI tumour cell line growth inhibition, 48 h
Label Condition met when TGI is at or above 30 µM; anything below gets Condition not met.

query: Entry O=C(NCCOCCOCCNc1cccc2c1C(=O)N(C1CCCNC1=O)C2=O)c1cc2c(o1)C(=O)c1ccccc1C2=O (centres undefined) : is its TGI no less than 30 µM?
result: Condition not met

query: Entry CCOc1cccc(/C=N/NC(=O)c2ccccc2Nc2ccnc(C(F)(F)F)c2)c1O : is its TGI no less than 30 µM?
result: Condition met

query: Entry O=C(CN1CCOCC1)Nc1ccc(Cn2nnc3c2C(=O)c2nnn(Cc4ccc(NC(=O)CN5CCOCC5)cc4)c2C3=O)cc1 : is its TGI no less than 30 µM?
result: Condition not met

query: Entry CCN(CC)CCc1c2c(nc3ccccc13)C(=O)c1cccnc1C2=O : is its TGI no less than 30 µM?
result: Condition not met

query: Entry CCN1c2ccccc2-n2c(C)nnc2-c2c1n[nH]c2-c1ccccc1 : is its TGI no less than 30 µM?
result: Condition met

query: Entry Cc1cc(I)cc(CNCCCN2CCSCC2)c1O : is its TGI no less than 30 µM?
result: Condition met

query: Entry CC(=O)Nc1ccccc1Sc1ccccc1 : is its TGI no less than 30 µM?
result: Condition met

query: Entry CSc1ccc(C2=NN(C(C)=O)C(c3cc(C)cs3)C2)cc1 (centres undefined) : is its TGI no less than 30 µM?
result: Condition met

query: Entry C[C@]12CC[C@@H]3c4ccc(O)cc4CC[C@H]3[C@@H]1C/C(=C\c1ccncc1)C2=O : is its TGI no less than 30 µM?
result: Condition met

query: Entry CC(C)c1ccc2[nH]c(O)c(-c3[nH]c4ccccc4c3N=O)c2c1 : is its TGI no less than 30 µM?
result: Condition not met

query: Entry OC1C2[C@@H](O)CCCN2C[C@@H](O)[C@H]1O (some centres undefined) : is its TGI no less than 30 µM?
result: Condition met

query: Entry CCOC(=O)CCc1cc(=O)oc2cc(O)cc(O)c12 : is its TGI no less than 30 µM?
result: Condition met

query: Entry Cc1ccc(C(=O)Nc2ccc(CP(=O)(O)O)cc2CP(=O)(O)O)cc1NC(=O)c1cccc(N)c1 : is its TGI no less than 30 µM?
result: Condition met

query: Entry CCOC(=O)NC(=O)c1cn(C2OC(COC(=O)CCCCCCCCC(=O)OCC3OC(n4cc(C(=O)NC(=O)OCC)c(=O)[nH]c4=O)C(O)C3O)C(O)C2O)c(=O)[nH]c1=O (centres undefined) : is its TGI no less than 30 µM?
result: Condition met

query: Entry CC[C@]1(Cc2ccc(OC)c(OC)c2)CN(S(=O)(=O)c2ccc(C)cc2)C[C@@H]1OC(C)=O : is its TGI no less than 30 µM?
result: Condition met

query: Entry CC1=C(O)C(=O)[C@@H]2O[C@@H]2C1=O : is its TGI no less than 30 µM?
result: Condition met

query: Entry COc1ccc2c(c1)c(-c1nc(-c3cn(C)c4ncccc34)cs1)cn2CCCN1CCCCC1 : is its TGI no less than 30 µM?
result: Condition not met
